# SYSTEM UNDER TEST: Cystic fibrosis transmembrane conductance regulator (Homo sapiens, UniProt P13569)
# Sequence (P13569 whole entry): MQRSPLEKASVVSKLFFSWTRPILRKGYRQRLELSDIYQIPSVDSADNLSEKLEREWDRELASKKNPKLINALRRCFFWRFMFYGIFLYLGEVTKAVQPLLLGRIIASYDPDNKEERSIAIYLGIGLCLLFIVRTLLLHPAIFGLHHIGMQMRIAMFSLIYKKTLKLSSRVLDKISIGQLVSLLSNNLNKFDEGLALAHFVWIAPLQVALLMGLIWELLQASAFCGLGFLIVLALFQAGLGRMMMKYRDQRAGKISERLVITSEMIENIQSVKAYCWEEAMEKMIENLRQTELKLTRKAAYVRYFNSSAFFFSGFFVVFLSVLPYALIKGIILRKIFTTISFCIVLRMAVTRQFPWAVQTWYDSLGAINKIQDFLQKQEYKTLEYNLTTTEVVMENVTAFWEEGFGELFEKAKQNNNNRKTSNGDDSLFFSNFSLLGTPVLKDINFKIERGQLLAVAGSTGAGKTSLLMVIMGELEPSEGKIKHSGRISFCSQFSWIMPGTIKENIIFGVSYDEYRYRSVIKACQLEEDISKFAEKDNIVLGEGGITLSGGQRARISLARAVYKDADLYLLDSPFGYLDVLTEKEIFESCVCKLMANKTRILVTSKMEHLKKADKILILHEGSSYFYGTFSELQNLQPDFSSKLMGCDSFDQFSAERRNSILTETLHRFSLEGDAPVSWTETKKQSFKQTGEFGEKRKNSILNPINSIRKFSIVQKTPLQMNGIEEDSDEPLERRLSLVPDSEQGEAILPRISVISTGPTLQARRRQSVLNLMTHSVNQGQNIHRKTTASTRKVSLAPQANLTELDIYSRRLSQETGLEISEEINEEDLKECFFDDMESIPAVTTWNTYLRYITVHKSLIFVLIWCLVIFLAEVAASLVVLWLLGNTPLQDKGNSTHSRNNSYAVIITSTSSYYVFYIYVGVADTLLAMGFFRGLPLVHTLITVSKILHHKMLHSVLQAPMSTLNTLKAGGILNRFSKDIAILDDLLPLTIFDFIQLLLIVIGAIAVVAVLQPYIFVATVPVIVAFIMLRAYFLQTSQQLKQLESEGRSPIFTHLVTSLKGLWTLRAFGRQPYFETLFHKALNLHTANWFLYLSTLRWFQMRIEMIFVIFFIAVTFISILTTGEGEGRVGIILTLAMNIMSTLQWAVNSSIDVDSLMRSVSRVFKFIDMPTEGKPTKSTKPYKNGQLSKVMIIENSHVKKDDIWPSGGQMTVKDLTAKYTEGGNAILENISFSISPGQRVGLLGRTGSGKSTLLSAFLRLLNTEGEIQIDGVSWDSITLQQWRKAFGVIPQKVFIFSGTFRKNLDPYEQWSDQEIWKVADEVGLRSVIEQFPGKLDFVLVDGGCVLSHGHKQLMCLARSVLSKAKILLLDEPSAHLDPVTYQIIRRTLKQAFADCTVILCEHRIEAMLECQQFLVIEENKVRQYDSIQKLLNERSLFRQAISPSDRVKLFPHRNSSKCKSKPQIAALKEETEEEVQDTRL
# METHOD DESCRIPTION: Activation of human wild-type CFTR stably expressed in rat FRT cells assessed as increase in apical membrane chloride current incubated for 20 mins by patch-clamp assay
# Format: cell-based
REPORTED ENDPOINT: EC50 (nM)
# output: bare number, implied unit nM

# CCOc1ccc(NC(=O)c2cc3nccc(-c4ccc(OC)c(OC)c4)n3n2)cc1 with Cystic fibrosis transmembrane conductance regulator (Homo sapiens, UniProt P13569): EC50 is 342

====

# SYSTEM UNDER TEST: Cystic fibrosis transmembrane conductance regulator (Homo sapiens)
# METHOD DESCRIPTION: Activation of human wild-type CFTR stably expressed in CHO-K1 cells co-expressing halide sensors YFP-H148Q/I152L assessed as CFTR-mediated iodide influx incubated for 10 mins by YFP fluorescence quenching assay
# Assay type: cell-based
// pEC50 lookup, one value per entry
pEC50 (log units): -log10 of the concentration in mol/L.

Consider the following illustrative entries.
{"SUBSTANCE SMILES": "COc1ccc(-c2ccnc3cc(C(=O)Nc4ccc(C(=O)O)cc4F)nn23)cc1OC", "NUMERIC RESULT": 7.38}
{"SUBSTANCE SMILES": "COc1ccc(-c2ccnc3cc(C(=O)NC4CCCCC4)nn23)cc1OC", "NUMERIC RESULT": 6.89}

The molecule listed as COc1ccc(-c2ccnc3cc(C(=O)N4CC[C@@H](NC(=O)OC(C)(C)C)C4)nn23)cc1OC has a reported pEC50 of 6.43

The molecule listed as COC(=O)c1ccc(NC(=O)c2cc3nccc(-c4ccc(OC)c(OC)c4)n3n2)cc1 has a reported pEC50 of 7.85

The molecule listed as COc1ccc(-c2ccnc3cc(C(=O)N4CCN(C(C)C)CC4)nn23)cc1OC has a reported pEC50 of 5.22

The molecule listed as COc1ccc(-c2ccnc3cc(C(=O)Nc4ccc(C(=O)N5CCN(C(=O)OC(C)(C)C)CC5)cc4)nn23)cc1OC has a reported pEC50 of 7.77

The molecule listed as COC(=O)c1ccc(CNC(=O)c2cc3nccc(-c4ccc(OC)c(OC)c4)n3n2)cc1 has a reported pEC50 of 6.33

The molecule listed as COc1ccc(-c2ccnc3cc(C(=O)N4CC(NC(=O)OC(C)(C)C)C4)nn23)cc1OC has a reported pEC50 of 6.15

The molecule listed as COc1ccc(-c2ccnc3cc(C(=O)Nc4ccc(C(=O)O)cc4)nn23)cc1OC has a reported pEC50 of 6.51

The molecule listed as COc1ccc(-c2ccnc3cc(C(=O)N4CCN(C(=O)OC(C)(C)C)CC4)nn23)cc1OC has a reported pEC50 of 6.57

The molecule listed as COc1ccc(-c2ccnc3cc(C(=O)N4CCN(C(=O)C5CC5)CC4)nn23)cc1OC has a reported pEC50 of 5.77

The molecule listed as COc1ccc(-c2ccnc3cc(C(=O)NCc4ccc(N5CCOCC5)cc4)nn23)cc1OC has a reported pEC50 of 6.15

The molecule listed as COc1ccc(-c2ccnc3cc(C(=O)N4CCN(C(=O)c5ccccc5)CC4)nn23)cc1OC has a reported pEC50 of 6.96

The molecule listed as COc1ccc(-c2ccnc3cc(C(=O)Nc4ccc(N5CCOCC5)cc4)nn23)cc1OC has a reported pEC50 of 8.15

The molecule listed as COc1ccc(-c2ccnc3cc(C(=O)N4CCN(Cc5ccccc5)CC4)nn23)cc1OC has a reported pEC50 of 6.14

The molecule listed as CCOc1ccc(NC(=O)c2cc3nccc(-c4ccc(OC)c(OC)c4)n3n2)cc1 has a reported pEC50 of 7.74

The molecule listed as COc1ccc(-c2ccnc3cc(C(=O)N4CCN(c5ccccc5)CC4)nn23)cc1OC has a reported pEC50 of 6.08

The molecule listed as COc1ccc(-c2ccnc3cc(C(=O)Nc4ccccc4)nn23)cc1OC has a reported pEC50 of 7.19

====

# METHOD DESCRIPTION: Cmax in New Zealand White Rabbit cornea at 0.1 mg per eye, TOP and measured upto 72 hrs by LC-MS/MS analysis
# Type: ADME, tissue-based, Oryctolagus cuniculus
# Design: dose 0.1 mg, time < 72 hrs, route top
# CONDITION CONTEXT: topical or ocular
REPORTED ENDPOINT: Cmax (ng/mL)
# output: bare number, implied unit ng/mL

The molecule listed as COc1ccc(-c2ccnc3cc(C(=O)N4CCN(C(=O)c5ccccc5)[C@@H](C)C4)nn23)cc1OC has a reported Cmax of 7840

====

# METHOD DESCRIPTION: AUC (0 to infinity) in New Zealand White Rabbit conjunctiva at 0.1 mg per eye, TOP and measured upto 72 hrs by LC-MS/MS analysis
# Type: ADME, tissue-based, Oryctolagus cuniculus
# Parameters: time < 72 hrs, dose 0.1 mg, route top
# CONDITION CONTEXT: topical or ocular
REPORTED ENDPOINT: AUC(0-inf) (ng·h/mL)
# output: bare number, implied unit ng·h/mL

The molecule listed as COc1ccc(-c2ccnc3cc(C(=O)N4CCN(C(=O)c5ccccc5)[C@@H](C)C4)nn23)cc1OC has a reported AUC(0-inf) of 13700

====

# METHOD DESCRIPTION: Solubility of compound in PBS at 7.5 at 0.5 mg/ml incubated for 90 mins by LC-MS/MS analysis
# Format: physicochemical
# CONDITION CONTEXT: PBS, pH 7.5
solubility thermodynamic at 1.5 h below 2 µM gives class 0; solubility thermodynamic at 1.5 h at or above it gives class 1.

{"SUBSTANCE SMILES": "COc1ccc(-c2ccnc3cc(C(=O)Nc4ccc(C(=O)N5CCN(C)CC5)cc4)nn23)cc1OC.Cl", "CAT": "class 1"}
{"SUBSTANCE SMILES": "COC(=O)C12CC(NC(=O)c3cc4nccc(-c5ccc(OC)c(OC)c5)n4n3)(C1)C2", "CAT": "class 0"}
{"SUBSTANCE SMILES": "COc1ccc(-c2ccnc3cc(C(=O)N4CCN(C(=O)c5ccccc5)[C@H](C)C4)nn23)cc1OC", "CAT": "class 1"}
{"SUBSTANCE SMILES": "COc1ccc(-c2ccnc3cc(C(=O)N4CCN(C(=O)c5ccccc5)[C@@H](C)C4)nn23)cc1OC", "CAT": "class 1"}

Please indicate if the recorded solubility thermodynamic at 1.5 h for COc1ccc(-c2ccnc3cc(C(=O)Nc4ccc(C(=O)O)cc4F)nn23)cc1OC meets or exceeds 2 µM.
class 0

Please indicate if the recorded solubility thermodynamic at 1.5 h for COc1ccc(-c2ccnc3cc(C(=O)N4CCN(C(=O)c5ccccc5)CC4)nn23)cc1OC meets or exceeds 2 µM.
class 1

Please indicate if the recorded solubility thermodynamic at 1.5 h for COc1ccc(-c2ccnc3cc(C(=O)N[C@H]4CC[C@H](C(=O)OC)CC4)nn23)cc1OC meets or exceeds 2 µM.
class 0

Please indicate if the recorded solubility thermodynamic at 1.5 h for COc1ccc(-c2ccnc3cc(C(=O)Nc4ccc(C(=O)O)cc4)nn23)cc1OC meets or exceeds 2 µM.
class 1

Please indicate if the recorded solubility thermodynamic at 1.5 h for COc1ccc(-c2ccnc3cc(C(=O)N4CCN(C(=O)c5ccccc5)C(C)(C)C4)nn23)cc1OC meets or exceeds 2 µM.
class 0

Please indicate if the recorded solubility thermodynamic at 1.5 h for COc1ccc(-c2ccnc3cc(C(=O)N[C@H]4CC[C@@H](C(=O)OC)CC4)nn23)cc1OC meets or exceeds 2 µM.
class 1

====

// pEC50 lookup, one value per entry
# SYSTEM UNDER TEST: Cystic fibrosis transmembrane conductance regulator (Homo sapiens, UniProt P13569)
# METHOD DESCRIPTION: Activation of human wild-type CFTR stably expressed in CHO-K1 cells co-expressing halide sensors YFP-H148Q/I152L assessed as CFTR-mediated iodide influx incubated for 10 mins by YFP fluorescence quenching assay
# Assay type: cell-based
pEC50 (log units): -log10 of the concentration in mol/L.

{"SUBSTANCE SMILES": "COc1ccc(-c2ccnc3cc(C(=O)Nc4ccc(C(=O)N5CCN(C)CC5)cc4)nn23)cc1OC.Cl", "pEC50": 6.54}
{"SUBSTANCE SMILES": "COc1ccc(-c2ccnc3cc(C(=O)Nc4ccc(C(=O)NCCN)cc4)nn23)cc1OC", "pEC50": 4.80}
{"SUBSTANCE SMILES": "COc1ccc(-c2ccnc3cc(C(=O)Nc4ccc(OCCN5CCOCC5)cc4)nn23)cc1OC", "pEC50": 8.22}
{"SUBSTANCE SMILES": "COC(=O)c1ccc(NC(=O)c2cc3nccc(-c4ccc(OC)c(OC)c4)n3n2)c(Cl)c1", "pEC50": 5.57}
{"SUBSTANCE SMILES": "COc1ccc(-c2ccnc3cc(C(=O)N4CCN(C5CC5)CC4)nn23)cc1OC", "pEC50": 5.85}
{"SUBSTANCE SMILES": "COc1ccc(-c2ccnc3cc(C(=O)N4CCN(C)CC4)nn23)cc1OC", "pEC50": 5.09}

The compound listed as COc1ccc(-c2ccnc3cc(C(=O)N4CCN(C(=O)c5ccccc5)C(C)(C)C4)nn23)cc1OC has a reported pEC50 of 6.70

The compound listed as COc1ccc(-c2ccnc3cc(C(=O)N4CCNCC4)nn23)cc1OC has a reported pEC50 of 4.77

The compound listed as COC(=O)C12CC(NC(=O)c3cc4nccc(-c5ccc(OC)c(OC)c5)n4n3)(C1)C2 has a reported pEC50 of 6.51

These data points were gathered from ChEMBL document CHEMBL5316288.
